Experimental system: raf1 with inactive MEK1 (Raf1-MEK1) (Homo sapiens, UniProt P04049)
Sequence (P04049 306-648 limits assumed): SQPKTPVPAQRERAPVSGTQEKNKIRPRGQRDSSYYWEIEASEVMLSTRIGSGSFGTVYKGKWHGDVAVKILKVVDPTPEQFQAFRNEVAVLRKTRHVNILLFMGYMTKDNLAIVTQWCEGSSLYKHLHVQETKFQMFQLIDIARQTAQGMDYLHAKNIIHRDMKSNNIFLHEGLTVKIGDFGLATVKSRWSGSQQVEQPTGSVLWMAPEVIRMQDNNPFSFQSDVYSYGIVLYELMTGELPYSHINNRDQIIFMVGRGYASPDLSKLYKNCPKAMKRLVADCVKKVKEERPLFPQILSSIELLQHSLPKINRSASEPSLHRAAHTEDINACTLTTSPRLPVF
Assay comment: Raf1-MEK1 assay (KinaseGlo)
Assay conditions: Raf-Mek, 3 uM ATP; read-out: RAF-MEK assay (biochemical assay)
pIC50: −log10 of the molar value. Counter-ions that a name gives are not always drawn.
Readout: pIC50

Molecule: CNC(=O)c1cc(Oc2ccc3nc(NC(=O)c4cccc(C(F)(F)F)c4)nnc3c2)ccn1 [trifluoroacetate salt]
pIC50: 6.18

a. CNC(=O)c1cc(Oc2ccc3nc(Nc4ccc(Cl)c(C(F)(F)F)c4)nnc3c2)ccn1 [trifluoroacetate salt]
b. CNC(=O)c1cc(Oc2ccc3nc(NC(=O)c4cc(C(F)(F)F)cc(Cl)c4F)nnc3c2)ccn1 [trifluoroacetate salt]
-- ask # query: argmin of pIC50 over a and b Give the chosen item's label as your response.
-- reply b
